// data source = patent EP1077942B1

molecular target: NK1 receptor (Cavia porcellus, UniProt P30547)
Sequence (P30547 whole entry): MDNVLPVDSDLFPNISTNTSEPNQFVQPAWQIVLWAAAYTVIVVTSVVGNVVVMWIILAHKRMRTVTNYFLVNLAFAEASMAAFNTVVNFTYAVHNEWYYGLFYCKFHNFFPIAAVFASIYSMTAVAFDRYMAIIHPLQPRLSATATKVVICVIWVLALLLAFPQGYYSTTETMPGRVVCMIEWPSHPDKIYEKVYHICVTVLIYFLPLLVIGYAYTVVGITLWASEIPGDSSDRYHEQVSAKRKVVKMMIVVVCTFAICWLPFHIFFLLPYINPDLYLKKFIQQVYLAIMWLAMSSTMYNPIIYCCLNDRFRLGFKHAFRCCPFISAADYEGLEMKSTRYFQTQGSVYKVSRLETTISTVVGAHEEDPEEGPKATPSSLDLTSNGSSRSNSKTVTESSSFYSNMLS
READOUT NAME: pIC50
Please express pIC50 as -log10 of the molar concentration.

# lookup: pIC50 of CCOC(=O)CN1CCN(C(=O)C2(c3ccccc3)CCN(CC[C@H](CN(C)C(=O)c3cc(-n4cnnn4)ccc3OC)c3ccc(Cl)c(Cl)c3)CC2)CC1 7.64

====

molecular target: human jejunal NK2 receptor (Homo sapiens)
Sequence (P21452 whole entry): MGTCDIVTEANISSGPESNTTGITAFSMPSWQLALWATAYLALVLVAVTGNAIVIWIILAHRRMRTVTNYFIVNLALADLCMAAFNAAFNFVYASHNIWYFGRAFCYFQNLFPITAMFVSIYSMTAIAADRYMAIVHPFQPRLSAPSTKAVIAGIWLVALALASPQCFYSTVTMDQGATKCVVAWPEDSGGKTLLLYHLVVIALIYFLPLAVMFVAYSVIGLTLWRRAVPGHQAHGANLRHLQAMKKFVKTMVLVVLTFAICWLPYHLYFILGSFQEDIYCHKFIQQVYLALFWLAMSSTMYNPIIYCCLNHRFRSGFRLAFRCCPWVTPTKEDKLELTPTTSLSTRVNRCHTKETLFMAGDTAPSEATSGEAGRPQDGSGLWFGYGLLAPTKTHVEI
READOUT NAME: pIC50
pIC50 here: minus log base 10 of the concentration, concentration in moles per litre.

# input compound: CCOC(=O)CN1CCN(C(=O)C2(c3ccccc3)CCN(CC[C@H](CN(C)C(=O)c3cc(-n4cnnn4)ccc3OC)c3ccc(Cl)c(Cl)c3)CC2)CC1 ; wanted: its pIC50 6.75
